# Cell Viability (Average, two targets) values compiled below
Tested on: mammalian cells
Experiment: Arrayed SSAP library screening, cell viability by live cell counts via flow cytometry
Assay type: cell-based
Reply briefly: the number, and no unit.

Solved cases below.
1) SSAP_67: SEQ ID NO: 236 (protein) TSQQLDTTHTINQQVTTFRHTLVQMKNEIAAALPAHMTGDRFLRLILTEVRKNPELAECSTESIFGGILTAAALGLEPGLNGECWLIPRKVGKGPGSRKEATFQVGYKGIIKLFWQNPLASYLDTGVVYANDAWKFRKGLDPILEHTPATGDRGAVRGYYAVVGLTTGARIFDFFTPKQISALRGTAGPNGGISDPEHWMERKTALLQVMKMAPKSTDLASAASVDGTVQTVEAAAQVAAASTGPVNPTTGEVLEAEPVEGGAA; 1.088
2) SSAP_198: SEQ ID NO: 367; Streptomyces sp. ms191 (protein, listed as Streptomyces sp.) VEHYKADLAQVMPSHVKPDTFIRLAVGVLRRDRNLAQAAQNNPAALMGALMDAAQLGLTPGTEQFYLVPRKKAGRLEVQGIRGYQGEIELIYRAGAVSSVIVEVVRQADTFRYSPGRDERPEHEIDWDAEDRGPLRLVYAYAVMKDGATSKVVVLNRAQVMKAKAMSQGSDSAYSPWQKHEEAMWMKTAAHRLTKWVPTSAEYMREQLRAAAEVAAEHRPTPVAAAPGMPSVPGEDEAIEAEFVDEDEVA; 0.4444
3) SSAP_288: SEQ ID NO: 457; Clostridium thermobutyricum (protein, listed as Clostridium thermobutyricum) QSTGDIVFPQNYNYSNALKSAQLILAETVDRNKVPVLQSCSKPSICNALLDMVIQGLSPAKKQCYFVPYGGKLQLMKSYLGNIAATKRLKGVKDVFANVIYEGDVFEYKLNLNTGLIEIEKHEQKFENISKKILGAYAVVVRENQNNYVEVMNIEQIKNAWNQGAAKGNSQAHKNFAEEMAKKTVINRACKRFVNTSDDSDTLIESINRTNEYKEEDIIETTKSEVGEEIKENANTENLGLEDTEVVEAEVIENIEFEGDK; 0.6836

Incoming: Query Cell Viability (Average, two targets) for SSAP_210: SEQ ID NO: 379; Rufibacter latericius (protein, listed as Rufibacter latericius) SNQLQVAREQVISAQKSFKNVPNNKLDFEREAGFAMQMIQSNPFLASMDANSIRNCIVNVALTGLTLNPVLKLAYLVPRKGKLILDPSYMGLINVLVTSGAAKKIEADVVCENDFFDYEKGTNGFIKHKPSLSSRGEIIAAYAIAHLPNGEVQFEIMNREELEKVRKSSEAAKKGSSPYDGWASEMMRKAPIRRLFKYLPKHNIPDQVINTLSLDEQNNGVDFSAQKQEAFKGKAADFFEDEPANTVDADYTDMSHEEADNELAA
Outgoing: 0.408
